- assay-summary: NCI Yeast Anticancer Drug Screen. Data for the mec2-1 strain (AID 157)
- recorded-conditions: S. cerevisiae mec2-1 strain, at 50.0 µM, stronger effect = higher value
The panel holds about 79,000 compounds, 15% with a hit somewhere; the sample as a whole holds those more often.

compound: CCCC=Nc1ccccc1
unit: %
growth inhibition: 3.65

compound: Cn1c2ccccc2c(=S)c2cc(NC(=O)CCCCC(=O)Nc3ccc4c(c3)c(=S)c3ccccc3n4C)ccc21
unit: %
growth inhibition: 22.9

compound: NC(=O)c1cccnc1
unit: %
growth inhibition: -41.4

compound: CC(NCc1cc(O)c(CNC(C)c2ccccc2)cc1O)c1ccccc1 (stereo unspecified)
unit: %
growth inhibition: 0.4

compound: COC(=O)[C@@H]1[C@H](OC(C)=O)CCC2[C@@]3(C[C@@H](c4ccoc4)O[C@@H]3OC)[C@H](C)CC[C@]21C(=O)OC (stereo partly specified)
unit: %
growth inhibition: -5.1

compound: CCOc1ccc(NC(=O)CC2SC(N)=NC2=O)cc1 (stereo unspecified)
unit: %
growth inhibition: -35.5

compound: CC(C)NNC(=O)c1ccc(N)cc1
unit: %
growth inhibition: 6.05

compound: O=[N+]([O-])c1ccccc1S(=O)(=O)c1ccccc1[N+](=O)[O-]
unit: %
growth inhibition: -9.45

compound: O=[N+]([O-])c1cccc(SNSc2cccc([N+](=O)[O-])c2)c1
unit: %
growth inhibition: 12.8

compound: COc1ccc(/C=C/C(=N\NC(=O)c2ccccc2)c2sc(Nc3ccc([N+](=O)[O-])cc3)nc2C)cc1OC
unit: %
growth inhibition: 2.5

compound: CCCCCCOCC(=O)O
unit: %
growth inhibition: -11.2

---

# maps each entry to its growth inhibition
- assay-summary: NCI Yeast Anticancer Drug Screen. Data for the rad50 strain (AID 155);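 also: 0% = growth of vehicle-only cultures of the same strain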
- recorded-conditions: S. cerevisiae rad50 strain growth inhibition; at 50.0 µM; stronger effect = higher value
This is part of a sample that, as a whole, favours compounds with a hit. Of some 79,000 tested, about 15% had one in any assay.
property-label: growth inhibition (%)

compound: COC1(OC)C(c2ccco2)C(C#N)(C#N)C1(OC)OC (stereo not given)
property-label: growth inhibition
reported: -5.65
//
compound: COC(=O)c1cc(Cl)ccc1Br
property-label: growth inhibition
reported: 17.4
//
compound: Cc1ccccc1C(O)(c1nccn1C)c1nccn1C
property-label: growth inhibition
reported: 8.75
//
compound: CCN(CC)CC1CCCCN1 (stereo not given)
property-label: growth inhibition
reported: -10.1
//
compound: Cc1c(C)c2c(c(C)c1Cl)CC2(Cl)Cl
property-label: growth inhibition
reported: 3.6
//
compound: CCCCc1c2c(nc3c1CCC/C3=C\c1ccccc1)/C(=C/c1ccccc1)CCC2
property-label: growth inhibition
reported: -5.05
//
compound: O=C(Nc1ccc([N+](=O)[O-])cc1)Oc1c(Cl)cc(Cl)c(Cl)c1[N+](=O)[O-]
property-label: growth inhibition
reported: 43.6
//
compound: CCCC(O)CO (stereo not given)
property-label: growth inhibition
reported: 5.55
//
compound: CCN(CC)CCNc1nc(N)c(C#N)c(C#N)c1C#N
property-label: growth inhibition
reported: 5.8
//
compound: Nc1cc(Cl)cc2c1nc(NCCO)c1ccccc12
property-label: growth inhibition
reported: 54.7
//
compound: Cc1cc2c(=O)cc(-c3ccc(C(=O)O)cc3)oc2c(C(=O)O)c1C
property-label: growth inhibition
reported: 7.1
//
compound: COc1ccc(C2(O)c3ccccc3C(=O)c3ccc(OC)cc32)cc1 (stereo not given)
property-label: growth inhibition
reported: -3.15
//
compound: COC(OC)c1cccc2c1C(=O)CCC1(O)c3ccccc3C1C2 (stereo not given)
property-label: growth inhibition
reported: -8.55
//
compound: O=c1[nH]c(=O)n(C2CC(O)C(CO)O2)cc1OCC1CCCCC1 (stereo not given)
property-label: growth inhibition
reported: -33.9
//
compound: O=C(Cl)C=Cc1ccc([N+](=O)[O-])cc1 (mixture of isomers)
property-label: growth inhibition
reported: 4.7
